System: OVCAR-3 ovarian
method_notes: NCI tumour cell line growth inhibition, 48 h
measured_quantity: TGI

>>> experimental_result("C#CCSc1cnc2ccccc2c1Sc1c[nH]c2ccccc2c1=O")
"> 100 µM"
>>> experimental_result("CCOC(=O)CC[C@@H](NC(=O)c1ccc(NCc2ccc3nc(OC)c(OC)nc3c2)cc1)C(=O)OCC")
"38.3 µM"
>>> experimental_result("COc1ccc(C2=C(c3cn(C)c4ccccc34)C(=O)NC2=O)cc1OC")
"> 25 µM"
>>> experimental_result("CCC(C)/C=C(C)/C=C/C(=O)c1c(O)c(-c2ccc(O)cc2)c[nH]c1=O (stereo not drawn)")
"9.33 µM"
>>> experimental_result("O=C(O)c1ccc(NS(=O)(=O)c2cccc3cccnc23)cc1")
"> 100 µM"
>>> experimental_result("COC(=O)CC1(O)C(C=C(C)C)C(C(=O)OC)C(=O)C(C(=O)OC)C1C(=O)OC (stereo not drawn)")
"> 100 µM"
>>> experimental_result("O=C1NC2(O)c3ccccc3C(=O)C2(O)N1c1ccccc1 (stereo not drawn)")
"> 100 µM"
>>> experimental_result("CNS(=O)(=O)NN(C)S(=O)(=O)c1ccc(Br)cc1")
"> 100 µM"
>>> experimental_result("Cc1cc(S(N)(=O)=O)c(S/C(=N\\Nc2ccc([N+](=O)[O-])cc2)c2ccc(Cl)cc2)cc1Cl")
"3.85 µM"
>>> experimental_result("O=[N+]([O-])C(=C/C1CCCCC1)/C(=C\\C1CCCCC1)[N+](=O)[O-]")
"31.6 µM"
>>> experimental_result("C/C=C/[C@@H]1O[C@H](CC#C[Si](C)(C)C)[C@@]2(C=O)C(C)=CC[C@H](C(C)C)[C@@H]12")
"42.4 µM"
>>> experimental_result("Cc1ccnc2c1c(=O)c1ccccc1n2C")
"> 100 µM"
>>> experimental_result("Nc1ccccc1Sc1ccc(Cl)cc1")
"72.1 µM"
>>> experimental_result("CC1CSc2nc3[nH]c(=S)[nH]c3c(=O)n2C1 (stereo not drawn)")
"> 100 µM"
>>> experimental_result("Cn1c2c(c3ccccc31)CC(=O)N1CCCCC1C21OCCO1 (stereo not drawn)")
"> 100 µM"
>>> experimental_result("O=C1C(Cl)=C(N2CCOCC2)C(=O)c2ccccc21")
"3.58 µM"
>>> experimental_result("Cc1cccc(C)c1NC(=O)C(=O)CC(=O)CO")
"> 100 µM"
>>> experimental_result("Cc1ccc(NS(=O)(=O)c2cc(C)ccc2C)cc1")
"7.12 µM"
>>> experimental_result("O=S(=O)(NC(c1ccccc1)(c1cc2ccccc2[nH]1)c1cc2ccccc2n1S(=O)(=O)c1ccccc1)c1ccccc1 (stereo not drawn)")
"> 100 µM"
>>> experimental_result("CCc1nc2ccc(Cc3ccc(C(=O)NO)cc3)cc2c(=O)n1CCc1ccccc1")
"3.85 µM"
>>> experimental_result("CC1(C)N=C(N)N=C(N)N1c1ccc(CCCCc2ccc(Cl)cc2Cl)cc1")
"5.5 µM"
>>> experimental_result("COc1ccc(/C=C2\\CNC/C(=C\\c3ccc(OC)cc3)C2=O)cc1")
"> 100 µM"
>>> experimental_result("C/C=C/OC1C(C2COC(C)(C)O2)OC2OC(C)(C)OC21 (stereo not drawn)")
"> 100 µM"
>>> experimental_result("CCN(CC)C(=S)N/N=C(\\C)c1ccccc1O")
"> 100 µM"
>>> experimental_result("CCCN(CCC)C(=O)Cc1c2n(c3ccccc13)Cc1ccccc1-2")
"> 100 µM"
>>> experimental_result("NNC(=O)CCCCCCCC(=O)O")
"> 100 µM"
>>> experimental_result("CCCCCC(/C=N/NC(N)=S)C(O)(C(F)(F)F)C(F)(F)F (stereo not drawn)")
"> 10 µM"
>>> experimental_result("O=C(c1cc(-c2cc3c(cc2C(=O)N2Cc4ccccc4C[C@H]2CN2CCOCC2)OCO3)n2c1CCCC2)N(c1ccccc1)c1ccc(O)cc1")
"> 100 µM"
>>> experimental_result("O=C1NC(N/N=C/C(O)C(O)C(O)C(O)CO)=N/C1=C\\c1cccs1 (stereo not drawn)")
"> 100 µM"
>>> experimental_result("C/C(=C1/N=C(c2cc([N+](=O)[O-])ccc2Cl)N(C2=CC=C(Cl)CC2)C1=O)c1cc2ccccc2oc1=O")
"> 100 µM"
>>> experimental_result("Cc1ccc(C(=O)N/N=C/c2cccc(Oc3ccccc3)c2)cn1")
"> 100 µM"
>>> experimental_result("N#C[C@](CO)(NC(=O)OCc1ccccc1)C(F)F")
"> 100 µM"
>>> experimental_result("Cc1cc2nc3c(C(O)CO)nn(-c4ccccc4)c3nc2cc1C (stereo not drawn)")
"35.1 µM"
>>> experimental_result("O=C(c1ccco1)N1CCN(C(=O)c2ccco2)C1=S")
"11.6 µM"
>>> experimental_result("CCOC(=O)/C=C/[C@H](O[Si](c1ccccc1)(c1ccccc1)c1ccccc1)C(C)(C)C")
"> 31.6 µM"
>>> experimental_result("C=C(Br)C(Cl)(CBr)CCC(Br)C(C)(C)Cl (stereo not drawn)")
"> 10 µM"
>>> experimental_result("O=[N+]([O-])c1cc(Br)cc2c1[nH]c1ccc(Br)cc12")
"7.42 µM"
>>> experimental_result("CCOC(=O)c1c(NC(=O)c2ccccc2)sc2c1CCC2")
"> 100 µM"
>>> experimental_result("O=C(COC(=O)c1ccccc1)c1ccc(Br)cc1")
"> 100 µM"
>>> experimental_result("O=C(/C=C/c1ccc(Cl)c(Cl)c1)CCN1CCN(CCC(=O)/C=C/c2ccc(Cl)c(Cl)c2)CC1")
"58.4 µM"
>>> experimental_result("C#CC[C@H](c1nc2cc(Cl)ccc2c(=O)n1Nc1ccccc1)N(CCCN)C(=O)c1cccc(Cl)c1F")
"1.19 µM"
>>> experimental_result("CC(=S)NNC(=O)c1ccncc1")
"> 100 µM"
>>> experimental_result("CC(=O)Oc1cccc2c1C(=O)C(Br)(Br)CCC2")
"13.3 µM"
